meta.source: patent US20120020915A1

target: HO-2 (rat brain) (Rattus norvegicus, UniProt P23711); construct: brain microsomes were used as a source of HO-2; from tissue; host or cells: brain microsomal fraction of adult male Sprague-Dawley rats; assay: HO enzymatic activity, rat brain microsomal fraction (CO formation from methemalbumin); type: biochemical; conditions: IC50 HO-2 (rat brain)/μM), CO formation from methemalbumin, mean ± SD of replicate experiments
Sequence (P23711 whole entry): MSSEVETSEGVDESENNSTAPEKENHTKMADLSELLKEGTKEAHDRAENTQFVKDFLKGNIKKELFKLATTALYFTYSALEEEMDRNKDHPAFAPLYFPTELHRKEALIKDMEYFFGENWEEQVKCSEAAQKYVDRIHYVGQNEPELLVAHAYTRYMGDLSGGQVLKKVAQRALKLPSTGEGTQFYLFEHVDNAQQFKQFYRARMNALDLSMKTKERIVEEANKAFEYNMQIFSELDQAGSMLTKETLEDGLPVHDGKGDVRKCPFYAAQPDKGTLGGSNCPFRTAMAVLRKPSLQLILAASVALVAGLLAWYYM
Structures can show the parent of a compound that is named as a salt.
reportedMetric: log10 IC50 (log10 of the value in µM)
Log10 applied to IC50; unit prior to transform: µM.

- molecule: "Cc1ccc(S(=O)(=O)OC[C@H]2CO[C@@](CCc3ccc(Cl)cc3)(Cn3ccnc3)O2)cc1 [QC-21]"
  log10 IC50: 1.36
- molecule: "O=C(CCc1ccc(Br)cc1)Cn1ccnc1 [QC-53, hydrochloride]"
  log10 IC50: 1.00
- molecule: "Cc1ccc(S(=O)(=O)OC[C@@H]2CO[C@](CCc3ccc(Cl)cc3)(Cn3ccnc3)O2)cc1 [QC-6]"
  log10 IC50: 1.36
- molecule: "Nc1ccccc1SC[C@@H]1CO[C@](CCc2ccc(Cl)cc2)(Cn2ccnc2)O1 [QC-3, dihydrochloride]"
  log10 IC50: 1.74
- molecule: "COc1ccc(CCC(=O)Cn2ccnc2)cc1 [QC-72, hydrochloride]"
  log10 IC50: 1.46

[in] Which value of log10 IC50 has been reported for Cc1ccc(S(=O)(=O)OC[C@@H]2CO[C@](CCc3ccc(Cl)cc3)(Cn3ccnc3)O2)cc1 [QC-4, dihydrochloride] in the records?
[out] 1.68

[in] Which value of log10 IC50 has been reported for Cl.OC(CCc1ccc(Br)cc1)Cn1ccnc1 (racemic) [QC-79, hydrochloride] in the records?
[out] 0.41

[in] Which value of log10 IC50 has been reported for COc1ccc(CCC(O)Cn2ccnc2)cc1 (stereo not shown) [QC-33, hydrochloride] in the records?
[out] 0.78

---

biological target: HO-1 (rat spleen) (Rattus norvegicus); construct: Spleen microsomes were used as a source of HO-1; from tissue; host or cells: spleen microsomal fraction of adult male Sprague-Dawley rats; assay: HO enzymatic activity, rat spleen microsomal fraction (CO formation from methemalbumin); format: biochemical; conditions: CO formation from methemalbumin, mean ± SD of replicate experiments, read-out: IC50 HO-1 (rat spleen/μM)
Sequence (P06762 whole entry): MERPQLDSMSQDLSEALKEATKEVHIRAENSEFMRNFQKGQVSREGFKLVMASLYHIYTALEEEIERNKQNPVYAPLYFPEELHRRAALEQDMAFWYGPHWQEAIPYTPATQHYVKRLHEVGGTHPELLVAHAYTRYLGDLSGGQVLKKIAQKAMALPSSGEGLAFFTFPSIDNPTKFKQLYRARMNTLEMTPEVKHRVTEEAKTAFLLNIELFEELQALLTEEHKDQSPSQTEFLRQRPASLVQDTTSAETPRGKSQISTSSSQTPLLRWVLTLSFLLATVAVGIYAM
# IC50 per entry

Example cases with answers are listed next.
- compound: "CCCC(=O)n1ccnc1 [QC-100, N-butyrylimidazole]"
  measurementTarget: "HO-1 (rat spleen) (Rattus norvegicus)"
  IC50: "> 100 µM"
- compound: "Cl.FC[C@@H]1CO[C@@](CCc2ccc(Cl)cc2)(Cn2ccnc2)O1 [QC-47, hydrochloride]"
  measurementTarget: "HO-1 (rat spleen) (Rattus norvegicus)"
  IC50: "6 µM"

[in] Which value of IC50 has been reported for O=C(NCCCn1ccnc1)Nc1ccccc1 [QC-107, 1-(3-Imidazol-1-yl-propyl)-3-phenyl-urea] in the records?
[out] > 100 µM

---

# IC50 per entry
target: HO-2 (rat brain) (Rattus norvegicus); construct: brain microsomes were used as a source of HO-2; from tissue; host or cells: brain microsomal fraction of adult male Sprague-Dawley rats; assay: HO enzymatic activity, rat brain microsomal fraction (CO formation from methemalbumin); assay type: biochemical; details: CO formation from methemalbumin, mean ± SD of replicate experiments, read-out: IC50 HO-2 (rat brain)/μM)
Where a name gives a salt, the structure may show the parent alone.

- molecule: "O=C(CCc1ccccc1)Cn1cnc([N+](=O)[O-])c1 [QC-127]"
  obsValue: "> 100 µM"
- molecule: "N[C@@H](Cc1c[nH]cn1)C(=O)O [QC-68, L-histidine hydrochloride monohydrate, reference compound]"
  obsValue: "> 100 µM"
- molecule: "O=C(CCc1ccccc1)Cn1ncnn1 [QC-117, hydrochloride]"
  obsValue: "37 µM"
- molecule: "Fc1ccc(COC(CCc2ccc(Cl)cc2)Cn2ccnc2)cc1 (stereo not drawn) [QC-37, hydrochloride]"
  obsValue: "1 µM"

[in] Which value of IC50 has been reported for O=C(c1ccc(-n2ccnc2)cc1)C1CC1 [QC-98, hydrochloride] in the records?
[out] > 100 µM

[in] Which value of IC50 has been reported for CSCC[C@@H](N)C(=O)O [QC-69, D-methionine, reference compound] in the records?
[out] > 100 µM

[in] Which value of IC50 has been reported for NCCc1c[nH]cn1 [QC-67, Histamine dihydrochloride, reference compound] in the records?
[out] > 100 µM
